Item-by-item account of Ki
# test target: T1, BCL-2 (UniProt P10415 1-217, limits assumed)
# T1 construct: Target of the Ki columns
# T1 sequence (P10415 1-217 limits assumed): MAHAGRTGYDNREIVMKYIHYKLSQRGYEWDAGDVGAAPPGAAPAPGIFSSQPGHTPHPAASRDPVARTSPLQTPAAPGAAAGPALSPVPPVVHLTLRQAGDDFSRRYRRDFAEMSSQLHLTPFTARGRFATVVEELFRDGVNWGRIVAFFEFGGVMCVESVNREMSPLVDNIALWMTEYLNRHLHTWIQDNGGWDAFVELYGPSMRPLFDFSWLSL
# assay name: Ki; method not stated; unit not printed (nM per Table 6)
Starred links: 1 amine or outer side, 2 acyl side, 3 side chain; linkers in the order of their positions; H or OH if unused. Positions of bridges follow the written chain, without caps; N, C: chain ends. Non-standard residues stand in square brackets, D forms with d. St = two pentenyl-alanine olefin side chains, each crosslinked to another residue (stitch), C=CCCCC(CCCC=C)(N[*:1])C(=O)[*:2]; R8 = C=CCCCCCC[C@@](C)(N)C(=O)O; S8 = C=CCCCCCC[C@](C)(N)C(=O)O; R5 = C=CCCC[C@@](C)(N)C(=O)O; S5 = C=CCCC[C@](C)(N)C(=O)O
outcome measure: Ki (nM)

[
  {
    "binder": "IWIAQALRAIGDAXNAYYA (N-terminal Ac; $r8 at 9 and $ at 16 (crosslinked); Bip at 14; C-terminal NH2) [SEQ ID NO: 1747]",
    "outcome measure": "Ki",
    "value measured": 114
  },
  {
    "binder": "Ac-IWIAQALR[R8]IGDEFN[St]YYA[R5]A-NH2 (staple 16-20, 9-16) [SEQ ID NO: 1784]",
    "outcome measure": "Ki",
    "value measured": 57.7
  },
  {
    "binder": "IWIAQALRAIGDAFNAYYX (N-terminal Ac; $r8 at 9 and $ at 16 (crosslinked); Aib at 19; C-terminal NH2) [SEQ ID NO: 1770]",
    "outcome measure": "Ki",
    "value measured": 218
  },
  {
    "binder": "Ac-I[R8]IAQALR[St]IGDEFN[S8]YYA-NH2 (staple 9-16, 2-9, Row prints Ac-I$r8IAQALRStIGDEFN$s8YYA-NH2) [SEQ ID NO: 1782]",
    "outcome measure": "Ki",
    "value measured": 22
  },
  {
    "binder": "Ac-IWIA[S5]ALR[St]IGDEFN[S8]YYA-NH2 (staple 9-16, 5-9, Row prints Ac-IWIA$ALRStIGDEFN$s8YYA-NH2) [SEQ ID NO: 1783]",
    "outcome measure": "Ki",
    "value measured": 19.2
  },
  {
    "binder": "IWIAQALRAIGDAANAYYA (N-terminal Ac; $r8 at 9 and $ at 16 (crosslinked); 2Nal at 14; C-terminal NH2) [SEQ ID NO: 1746]",
    "outcome measure": "Ki",
    "value measured": 35.1
  }
]
